Molecular target: human Sortilin (Homo sapiens (Human))
Sequence (Q99523 78-755): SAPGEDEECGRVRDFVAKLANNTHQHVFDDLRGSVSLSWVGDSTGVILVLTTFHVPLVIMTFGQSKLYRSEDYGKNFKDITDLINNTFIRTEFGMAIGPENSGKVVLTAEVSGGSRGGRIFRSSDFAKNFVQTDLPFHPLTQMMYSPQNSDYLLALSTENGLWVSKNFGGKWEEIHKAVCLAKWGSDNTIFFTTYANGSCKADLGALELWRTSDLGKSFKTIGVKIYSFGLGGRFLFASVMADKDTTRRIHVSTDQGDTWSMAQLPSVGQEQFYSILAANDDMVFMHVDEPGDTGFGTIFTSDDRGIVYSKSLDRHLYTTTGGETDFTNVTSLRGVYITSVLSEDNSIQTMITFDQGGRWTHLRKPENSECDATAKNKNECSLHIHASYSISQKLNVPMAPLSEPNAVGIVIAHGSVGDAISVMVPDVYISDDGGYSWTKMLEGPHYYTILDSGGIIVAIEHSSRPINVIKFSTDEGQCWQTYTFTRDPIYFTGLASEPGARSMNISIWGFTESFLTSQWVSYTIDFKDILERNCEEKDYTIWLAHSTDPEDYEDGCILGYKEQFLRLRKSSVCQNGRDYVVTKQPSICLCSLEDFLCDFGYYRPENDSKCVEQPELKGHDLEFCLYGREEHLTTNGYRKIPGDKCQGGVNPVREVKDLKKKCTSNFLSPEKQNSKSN
Assay: Creoptix (GCI) binding kinetics, human Sortilin
Details: MsOH salt, screened at 1 μM
metric: Kd (nM)
Give just the numeric value; nM need not be written.

// Kd value for COc1cccc(CN[C@@H](CCC(C)(C)C)C(=O)O)c1.Cl : 396

====

Assay: Blood-brain-barrier permeability of study compounds in mice after PO administration
Settings: mouse, brain and plasma (unbound concentrations), oral, Kpuu, ratio of unbound brain to unbound plasma concentration
Counter-ions that a name gives are not always drawn.
metric: Kp uu at 1 h

[[record]]
compound = "COc1cccc(CN[C@@H](CCC(C)(C)C)C(=O)O)c1.Cl"
metric = "Kp uu at 1 h"
measurement = "> 0.1"


Read the next record carefully.
// Kp uu at 1 h value for Cn1ccc2c(CN[C@@H](CCC(C)(C)C)C(=O)O)cccc21 [Example 6, hydrochloride] : > 0.1
